target: PDEδ farnesyl pocket (Homo sapiens); assay: Displacement titrations of labeled probe (fluorescence polarization) for the determination of KD values; format: binding; conditions: Kd for the PDEδ farnesyl pocket; read-out: KD
Sequence (O43924 whole entry): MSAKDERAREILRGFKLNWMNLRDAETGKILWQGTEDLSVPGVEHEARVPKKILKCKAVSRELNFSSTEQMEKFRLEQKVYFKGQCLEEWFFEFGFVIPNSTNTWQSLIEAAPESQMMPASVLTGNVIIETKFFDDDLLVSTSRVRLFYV
pKd: −log10 of the molar value.
Each entry below carries its recorded pKd.

Would you please look over these solved cases?
| molecule | endpoint value |
| --- | --- |
| CC(C)Cc1nc2ccccc2n1Cc1c(F)cccc1Cl [Compound 37] | 7.00 to 7.60 |
| CCCC(O)c1nc2ccccc2n1Cc1c(F)cccc1Cl (stereo not shown) [Compound 41] | 6.00 to 7.00 |
| C=CCOc1ccc(-c2nc3ccccc3n2Cc2ccc(F)cc2)cc1 [Compound S06] | 6.00 to 7.00 |
| Cc1ccc(NC(=O)N2CCN(c3nc4ccccc4n3Cc3ccccc3)CC2)c(C)c1 [Compound 44] | 6.00 to 7.00 |
| Cc1ccccc1Cn1c(N2CCC(C(=O)O)CC2)nc2ccccc21 [Compound 22] | < 6.00 |

Data request, read-out pKd, for C=C(C)Cn1c(CC(C)C)nc2ccccc21 [Compound 31] 6.00 to 7.00

What do you get for CN(CCCNC(=O)C1CCN(c2nc3ccccc3n2Cc2ccc(F)cc2)CC1)C1CCCCC1 [Compound 21] ? 6.00 to 7.00
